Data provenance: patent US20110212968A1

# targetOrSystem: human orexin-1 receptor (Homo sapiens, UniProt O43613)
# Construct: expressed in transfected cells; host or cells: CHO (Chinese hamster ovary) cells, kept under G418 selection
# Sequence (O43613 1-425): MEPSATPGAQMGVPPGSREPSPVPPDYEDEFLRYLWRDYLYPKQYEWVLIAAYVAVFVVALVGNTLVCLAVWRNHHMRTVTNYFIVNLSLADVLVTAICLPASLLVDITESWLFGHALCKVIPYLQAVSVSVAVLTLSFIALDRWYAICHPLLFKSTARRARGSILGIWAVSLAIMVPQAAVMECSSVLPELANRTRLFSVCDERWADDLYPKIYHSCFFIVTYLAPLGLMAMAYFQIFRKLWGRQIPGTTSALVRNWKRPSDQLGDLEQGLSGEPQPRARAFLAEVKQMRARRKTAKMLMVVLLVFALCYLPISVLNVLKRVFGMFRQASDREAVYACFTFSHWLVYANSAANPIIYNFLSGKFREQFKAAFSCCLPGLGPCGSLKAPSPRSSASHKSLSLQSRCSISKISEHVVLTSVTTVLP
# experimentNotes: Intracellular calcium measurement (FLIPR Tetra), orexin receptor antagonistic activity, OX1
# Format: cell-based
# conditionsUsed: CHO cells expressing human orexin-1 receptor, 3 nM orexin-A, conditions B, normalized (*) using IC50 of on-plate reference compound
pIC50: −log10 of the molar value.
outcomeMeasure: pIC50

Cc1ccc(-c2nccnc2C(=O)N(CCN)CCc2c[nH]c3ccc(F)cc23)cc1C [Example 434] = < 5.27
CCN(CCc1c[nH]c2ccccc12)C(=O)c1cncnc1-c1ccc(Br)c(Cl)c1 [Example 536] = 6.58

--- query ---
**Query** GET /values?readout=pIC50&system=human orexin-1 receptor (Homo sapiens, UniProt O43613)&item= O=C(c1nccnc1-c1ccccc1)N(CCO)CCc1c[nH]c2ccc(F)cc12 [Example 289]
**Result** < 5.37

* * *

# targetOrSystem: human orexin-2 receptor (Homo sapiens, UniProt O43614)
# Construct: expressed in transfected cells; host or cells: CHO (Chinese hamster ovary) cells, kept under G418 selection
# Sequence (O43614 whole entry): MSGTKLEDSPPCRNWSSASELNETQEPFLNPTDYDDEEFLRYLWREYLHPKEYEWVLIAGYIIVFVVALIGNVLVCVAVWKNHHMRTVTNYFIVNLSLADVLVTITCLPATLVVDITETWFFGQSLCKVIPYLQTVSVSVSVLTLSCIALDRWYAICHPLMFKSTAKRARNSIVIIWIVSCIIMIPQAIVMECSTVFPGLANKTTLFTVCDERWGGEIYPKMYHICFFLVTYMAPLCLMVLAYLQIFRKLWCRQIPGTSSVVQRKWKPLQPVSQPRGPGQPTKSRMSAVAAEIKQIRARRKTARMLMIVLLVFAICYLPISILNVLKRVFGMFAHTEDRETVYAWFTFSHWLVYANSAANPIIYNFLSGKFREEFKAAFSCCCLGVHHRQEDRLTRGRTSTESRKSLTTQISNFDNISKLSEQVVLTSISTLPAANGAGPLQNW
# experimentNotes: Intracellular calcium measurement (FLIPR Tetra), orexin receptor antagonistic activity, OX2
# Type: cell-based
# conditionsUsed: CHO cells expressing human orexin-2 receptor, 3 nM orexin-A, conditions B, normalized (*) using IC50 of on-plate reference compound
outcomeMeasure: pIC50
One number for each entry, as −log10 of the molar value.

Example entries begin here.
Cc1ccc(-c2nccnc2C(=O)N(CCc2nc3cc(C)c(C)cc3[nH]2)CC2CC2)cc1C = 7.46
Cc1cncc(-c2sc(C)nc2C(=O)N(CCc2c[nH]c3ccc(F)cc23)CC2CC2)c1 = 7.30

Please supply pIC50 for each of the following items, keeping them in order.
1. COc1ccc2nc(CCN(CC3CC3)C(=O)c3ncccc3-c3ccc(OC)nc3)[nH]c2c1
2. Cc1cccc(-c2sc(CN(C)C)nc2C(=O)N(CCc2c[nH]c3ccc(F)cc23)CC2CC2)c1
3. Cc1nc(C(=O)N(CCc2c[nH]c3ccc(F)cc23)CC2CC2)c(-c2ccc(C#N)c(F)c2)s1
4. CN(C)c1nc(C(=O)N(CCc2c[nH]c3cc(F)c(Cl)cc23)CC2CC2)c(-c2ccccc2)s1
5. CCC(=O)Nc1ccc(-c2sc(C)nc2C(=O)N(CCc2c[nH]c3ccccc23)CC2CC2)cc1
6. Cc1cccc2c(CCN(CC3CC3)C(=O)c3nccnc3-c3ccccc3)c[nH]c12
7. Cc1cc(F)cc(-c2nccnc2C(=O)N(CCc2c[nH]c3ccccc23)CC(F)(F)F)c1

**Result**
1: 7.05; 2: 6.55; 3: 7.00; 4: 6.68; 5: 6.48; 6: 8.10; 7: 6.67

Please supply pIC50 for each of the following items, keeping them in order.
1. COc1ccc(-c2nccnc2C(=O)N(CCc2c[nH]c3c(C)cccc23)CC2CC2)cc1
2. Cc1nc(C(=O)N(CCc2c[nH]c3ccc(F)cc23)CC2CC2)c(-c2ccc(C)c(F)c2F)s1

**Result**
[8.70, 7.19]
